- target: KRAS WT (Homo sapiens (Human))
- Sequence (P01116-2 other isoform, or with tags, fused parts or gaps): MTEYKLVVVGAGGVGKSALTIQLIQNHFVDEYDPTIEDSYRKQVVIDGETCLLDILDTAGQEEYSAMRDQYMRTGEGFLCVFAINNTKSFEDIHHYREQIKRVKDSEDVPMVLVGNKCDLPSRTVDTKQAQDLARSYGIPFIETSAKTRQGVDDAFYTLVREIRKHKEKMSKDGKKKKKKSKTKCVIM
- assayComment: KRAS WT Biochemical Assay, BODIPY-GDP Exchange TR-FRET (Example 501; 3 nM KRAS WT, 3 nM SOS1, 60-minute incubation)
- experimentalSetup: read-out: KRas HTRF IC50
pIC50: −log10 of the molar value.
Would you please tag the item Y when its pIC50 is 7 or above, and N when it is below?

input: Could you verify whether the entry Cc1cc(N)c(F)c(-c2nc3c4c(nc(OC[C@@H]5CC[C@H]6COCCN65)nc4c2F)N2C[C@H]4CC[C@H](N4)[C@H]2[C@H](C)O3)c1CC(F)F shows pIC50 of no less than 7?
output: N

input: Could you verify whether the entry C#Cc1c(F)ccc2cccc(-c3nc4c5c(nc(OCC67CCN6CC(F)(F)C7)nc5c3F)N3C[C@H]5CC[C@H](N5)[C@H]3[C@H](C)O4)c12 (some centres unmarked) shows pIC50 of no less than 7?
output: Y

input: Could you verify whether the entry Cc1cc(N)cc(-c2nc3c4c(nc(OC[C@@H]5CC[C@H]6COCCN65)nc4c2F)N2C[C@H]4CC[C@H](N4)[C@H]2[C@H](C)O3)c1CC(F)F shows pIC50 of no less than 7?
output: N

input: Could you verify whether the entry Cc1c(F)c(N)cc(-c2nc3c4c(nc(OC[C@@]56CCCN5C[C@H](F)C6)nc4c2F)N2C[C@H]4CC[C@H](N4)[C@H]2[C@@H](C(F)F)O3)c1C(F)(F)F (single isomer, unassigned) [238 (isomer 2)] shows pIC50 of no less than 7?
output: N

input: Could you verify whether the entry CC(c1cc(F)c(N)cc1-c1nc2c3c(nc(OC[C@@]45CCCN4C[C@H](F)C5)nc3c1F)N1C[C@H]3CC[C@H](N3)[C@H]1[C@H](C)O2)C(F)F (single isomer, unassigned) [181 (isomer 2)] shows pIC50 of no less than 7?
output: N

input: Could you verify whether the entry Cc1nc(N)cc(-c2nc3c4c(nc(OC[C@@]56CCCN5C[C@H](F)C6)nc4c2F)N2C[C@H]4CC[C@H](N4)[C@H]2[C@H](C(F)(F)F)O3)c1C(F)(F)F shows pIC50 of no less than 7?
output: Y

input: Could you verify whether the entry Cc1nc(N)cc(-c2nc3c4c(nc(OCC5(CN6CCOC7(CC7)C6)CC5)nc4c2F)N2C[C@H]4CC[C@H](N4)[C@H]2[C@H](C)O3)c1C(F)(F)F shows pIC50 of no less than 7?
output: Y

input: Could you verify whether the entry Cc1c(F)c(N)cc(-c2nc3c4c(nc(OC[C@@H]5CC[C@H]6COCCN65)nc4c2F)N2C[C@H]4CC[C@H](N4)[C@H]2[C@H](C(F)(F)F)O3)c1C(F)(F)F shows pIC50 of no less than 7?
output: Y

input: Could you verify whether the entry Cc1cc(N)c(F)c(-c2nc3c4c(nc(OC[C@@]56CCCN5CC5(CC5(F)F)C6)nc4c2F)N2C[C@H]4CC[C@H](N4)[C@H]2[C@H](C)O3)c1C(F)(F)F (some centres unmarked) shows pIC50 of no less than 7?
output: Y

input: Could you verify whether the entry Cc1c(Cl)c(N)cc(-c2nc3c4c(nc(OC[C@@]56CCCN5C[C@H](F)C6)nc4c2Cl)N2C[C@H]4CC[C@H](N4)[C@H]2[C@H](C)O3)c1C(F)(F)F shows pIC50 of no less than 7?
output: Y

----------
- target: UniProt:P01116
- assayComment: KRAS WT Biochemical Assay, BODIPY-GDP Exchange TR-FRET (Example 502; 0.06 nM KRAS WT, 15 nM GDP, 300 nM SOS1, 120-minute incubation)
- experimentalSetup: read-out: KRas HTRF IC50
observedProperty: IC50

input: Dear colleague, I am looking for the recorded IC50 of the following compound: Cc1cc(N)c(F)c(-c2nc3c4c(ncnc4c2Cl)N2C[C@H]4CC[C@H](N4)[C@H]2[C@H](C)O3)c1C(F)(F)F (single isomer, unassigned) [Compound 94]
output: 200 µM

input: Dear colleague, I am looking for the recorded IC50 of the following compound: C[C@@H]1Oc2nc(-c3cc(N)c(F)c(Cl)c3C(F)(F)F)c(F)c3nc(OC[C@@]45CCCN4C[C@H](F)C5)nc(c23)N2C[C@H]3CC[C@H](N3)[C@@H]12 [Compound 104]
output: 0.00071 µM

input: Dear colleague, I am looking for the recorded IC50 of the following compound: C[C@@H]1Oc2nc(-c3cc(O)cc4ccc(F)c(F)c34)c(F)c3nc(OC[C@@]45CCCN4C[C@H](F)C5)nc(c23)N2C[C@H]3CC[C@H](N3)[C@@H]12 [Compound 82]
output: 23.5 µM

----------
- target: KRAS G12D (Homo sapiens (Human), UniProt P01116, G12D)
- Sequence (P01116-2 other isoform, or with tags, fused parts or gaps G12D): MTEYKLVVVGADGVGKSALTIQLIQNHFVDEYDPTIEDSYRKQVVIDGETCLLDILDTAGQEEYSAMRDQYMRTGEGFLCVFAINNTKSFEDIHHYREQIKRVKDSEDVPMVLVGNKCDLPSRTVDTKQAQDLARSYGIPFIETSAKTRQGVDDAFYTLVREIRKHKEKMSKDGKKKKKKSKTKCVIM
- assayComment: KRAS G12D LoEnz Biochemical Assay, BODIPY-GDP Exchange TR-FRET (SOS1-mediated nucleotide exchange)
- experimentalSetup: read-out: KRas (G12D) GDP HTRF IC50
pIC50: −log10 of the molar value.
Would you please tag the item condition met when its pIC50 is 9 or above, and condition not met when it is below?

input: Could you verify whether the entry Cc1c(F)c(N)cc(-c2nc3c4c(nc(OCC5CC(F)C6CCCN56)nc4c2F)N2C[C@H]4CC[C@H](N4)[C@H]2[C@H](C)O3)c1C(F)(F)F (single isomer, unassigned) [Compound 160 (diast. 2)] shows pIC50 of no less than 9?
output: condition met

input: Could you verify whether the entry Cc1c(F)c(N)cc(-c2nc3c4c(nc(OCC5(CN6CC(F)C6)CC5)nc4c2F)N2C[C@H]4CC[C@H](N4)[C@H]2[C@H](C)O3)c1C(F)(F)F [Compound 173] shows pIC50 of no less than 9?
output: condition met

input: Could you verify whether the entry Cc1c(F)c(N)cc(-c2nc3c4c(nc(OCC5CCC6CC(F)(F)CN56)nc4c2F)N2C[C@H]4CC[C@H](N4)[C@H]2[C@H](C)O3)c1C(F)(F)F (single isomer, unassigned) [153 (isomer 1)] shows pIC50 of no less than 9?
output: condition met

input: Could you verify whether the entry C[C@@H]1Oc2nc(-c3cc(N)c(F)cc3[C@H](C)C(F)F)c(F)c3nc(OC[C@@]45CCCN4C[C@H](F)C5)nc(c23)N2C[C@H]3CC[C@H](N3)[C@@H]12 (single isomer, unassigned) [181 (isomer 1)] shows pIC50 of no less than 9?
output: condition not met

input: Could you verify whether the entry Cc1c(F)c(N)cc(-c2nc3c4c(nc(OC[C@]56CCN5CC(F)(F)C6)nc4c2F)N2C[C@H]4CC[C@H](N4)[C@H]2[C@H](C)O3)c1C(F)(F)F [Compound 24] shows pIC50 of no less than 9?
output: condition met

input: Could you verify whether the entry Cc1c(F)c(N)cc(-c2nc3c4c(nc(OC[C@@H]5CC[C@@H]6C[C@@H](C(=O)N(C)C)CCN65)nc4c2F)N2C[C@H]4CC[C@H](N4)[C@H]2[C@H](C)O3)c1C(F)(F)F (single isomer, unassigned) [133 (isomer 1)] shows pIC50 of no less than 9?
output: condition met

input: Could you verify whether the entry Cc1cc(N)cc(-c2nc3c4c(nc(OC[C@@H]5CC[C@H]6COCCN65)nc4c2F)N2C[C@H]4CC[C@H](N4)[C@H]2[C@H](C)O3)c1C(F)(F)F [Compound 67] shows pIC50 of no less than 9?
output: condition met

input: Could you verify whether the entry C[C@@H]1Oc2nc(-c3cccc4sc(N)nc34)c(F)c3nc(OC[C@@]45CCCN4C[C@H](F)C5)nc(c23)N2C[C@H]3CC[C@H](N3)[C@@H]12 [Compound 116] shows pIC50 of no less than 9?
output: condition not met

input: Could you verify whether the entry Cc1c(F)c(N)cc(-c2nc3c4c(nc(OC[C@@H]5CC[C@H]6C[C@H](C(=O)N(C)C)CCN56)nc4c2F)N2C[C@H]4CC[C@H](N4)[C@H]2[C@H](C)O3)c1C(F)(F)F (single isomer, unassigned) [133 (isomer 4)] shows pIC50 of no less than 9?
output: condition met

input: Could you verify whether the entry Cc1c(F)c(N)cc(-c2nc3c4c(nc(OCC5(CN6CCO[C@H](C)C6)CC5)nc4c2F)N2C[C@H]4CC[C@H](N4)[C@H]2[C@H](C)O3)c1C(F)(F)F [Compound 168] shows pIC50 of no less than 9?
output: condition met

input: Could you verify whether the entry Cc1c(F)c(N)cc(-c2nc3c4c(nc(OCC5(CN6CCO[C@@H](CF)C6)CC5)nc4c2F)N2C[C@H]4CC[C@H](N4)[C@H]2[C@H](C)O3)c1C(F)(F)F [Compound 172] shows pIC50 of no less than 9?
output: condition met

input: Could you verify whether the entry Cc1cc(N)nc(-c2nc3c4c(ncnc4c2F)N2C[C@H]4CC[C@H](N4)[C@H]2CO3)c1C(F)(F)F [Compound 52] shows pIC50 of no less than 9?
output: condition not met

input: Could you verify whether the entry Cc1nc(N)cc(-c2nc3c4c(nc(OCC5(CN6CC7COCC7C6)CC5)nc4c2F)N2C[C@H]4CC[C@H](N4)[C@H]2[C@H](C)O3)c1C(F)(F)F (some centres unmarked) [Compound 205] shows pIC50 of no less than 9?
output: condition not met

input: Could you verify whether the entry Cc1c(F)c(N)cc(-c2nc3c4c(nc(OC[C@@]56CCCN5C[C@H](F)C6)nc4c2F)N2C[C@H]4CC[C@H](N4)[C@H]2[C@H](C(F)F)O3)c1C(F)(F)F (single isomer, unassigned) [238 (isomer 1)] shows pIC50 of no less than 9?
output: condition not met

input: Could you verify whether the entry Cc1nc(N)cc(-c2nc3c4c(nc(OCC5(CN6CCC(C(F)F)C6)CC5)nc4c2F)N2C[C@H]4CC[C@H](N4)[C@H]2[C@H](C)O3)c1C(F)(F)F (some centres unmarked) [Compound 276] shows pIC50 of no less than 9?
output: condition met

input: Could you verify whether the entry Cc1c(F)c(N)cc(-c2nc3c4c(nc(OC[C@]56CCC[C@@H]5N(C)CCC6)nc4c2F)N2C[C@H]4CC[C@H](N4)[C@H]2[C@H](C)O3)c1C(F)(F)F (single isomer, unassigned) [126 (isomer 1)] shows pIC50 of no less than 9?
output: condition met

input: Could you verify whether the entry Cc1c(F)c(N)cc(-c2nc3c4c(nc(OC[C@@]56CCCN5C[C@H](F)C6)nc4c2F)N2C[C@H]4CC[C@H](N4)[C@H]2[C@H](C)O3)c1Cl [Compound 76] shows pIC50 of no less than 9?
output: condition met

input: Could you verify whether the entry Cc1cc(N)c(F)c(-c2nc3c4c(nc(OC[C@@H]5CC[C@H]6COCCN65)nc4c2F)N2C[C@H]4CC[C@H](N4)[C@H]2[C@H](C)O3)c1C1CC1 [Compound 98] shows pIC50 of no less than 9?
output: condition not met
